src = ChEMBL document CHEMBL1138397

Test system: Mycolicibacterium smegmatis
Assay: Ratio of MIC for Arr-1 positive Mycobacterium smegmatis DSM 43756 to MIC for Arr-1 negative Mycobacterium smegmatis DSM 43756Kml
Format: functional
metric: Ratio
// no unit, no text: just the number

// field: Ratio; key: "CO[C@H]1/C=C/O[C@@]2(C)Oc3c(C)c(O)c4c(c3C2=O)C(=O)C(N2CCOCC2)=C(NC(=O)/C(C)=C\C=C\[C@H](C)[C@H](O)[C@@H](C)[C@@H](O)[C@@H](C)[C@H](OC(=O)N2CCC(NCc3ccccc3)CC2)[C@@H]1C)C4=O" ; value = 1

Lab note: measured Ratio of "CO[C@H]1/C=C/O[C@@]2(C)Oc3c(C)c(O)c4c(c3C2=O)C(=O)C(N2CCOCC2)=C(NC(=O)/C(C)=C\C=C\[C@H](C)[C@H](O)[C@@H](C)[C@@H](O)[C@@H](C)[C@H](OC(=O)N2CCOCC2)[C@@H]1C)C4=O" was 2

Ratio recorded for this molecule, "COc1ccc(CNC(=O)O[C@H]2[C@H](C)[C@H](O)[C@H](C)[C@@H](O)[C@@H](C)/C=C/C=C(/C)C(=O)NC3=C(N4CCOCC4)C(=O)c4c(c(O)c(C)c5c4C(=O)[C@@](C)(O/C=C/[C@H](OC)[C@H]2C)O5)C3=O)cc1" , is 2

Ratio recorded for this molecule, "COc1ccccc1-c1cc(CNC(=O)O[C@H]2[C@H](C)[C@H](O)[C@H](C)[C@@H](O)[C@@H](C)/C=C/C=C(/C)C(=O)NC3=C(N4CCOCC4)C(=O)c4c(c(O)c(C)c5c4C(=O)[C@@](C)(O/C=C/[C@H](OC)[C@H]2C)O5)C3=O)on1" , is 1

For record "CO[C@H]1/C=C/O[C@@]2(C)Oc3c(C)c(O)c4c(c3C2=O)C(=O)C(N2CCOCC2)=C(NC(=O)/C(C)=C\C=C\[C@H](C)[C@H](O)[C@@H](C)[C@@H](O)[C@@H](C)[C@H](OC(=O)NCc2ccc(N(C)C)cc2)[C@@H]1C)C4=O" the listed Ratio is 1

Data point: "CO[C@H]1/C=C/O[C@@]2(C)Oc3c(C)c(O)c4c(c3C2=O)C(=O)C(N2CCOCC2)=C(NC(=O)/C(C)=C\C=C\[C@H](C)[C@H](O)[C@@H](C)[C@@H](O)[C@@H](C)[C@H](OC(=O)NCc2cc(-c3ccccn3)no2)[C@@H]1C)C4=O" ; Ratio = 1
